Tested on: Pseudomonas aeruginosa
Experiment: Antibacterial activity against Pseudomonas aeruginosa NB52023 harboring gyrA T83I mutant/ParC S87L mutant by CLSI-based broth microdilution assay
Format: functional
This section presents molecules with their documented log10 of MIC values.
measurement-label: log10 of MIC (log10 of the value in µg/mL)

Cc1c(N2CC3CC3(N)C2)c(F)cc2c(CN)cc(=O)n(C3CC3)c12 (centres undefined): 0.00
Cc1c(N2CC[C@H](N)C2)c(F)cc2c(CN)cc(=O)n(C3CC3)c12: 0.30
Cc1c(N2CC3CC3(CN)C2)c(F)cc2c(CN)cc(=O)n(C3CC3)c12 (racemic): 1.20
Cc1c(CN)c2cc(F)c(N3CC4CC4(N)C3)c(C)c2n(C2CC2)c1=O (centres undefined): 0.30
Cc1c(N2CC3CC3(N)C2)c(F)cc2c(CN)c(Cl)c(=O)n(C3CC3)c12 (centres undefined): 0.30
Cc1c(N2CC[C@@H](N)C2)c(F)cc2c(CN)cc(=O)n(C3CC3)c12: 1.51
Cc1c(N2C[C@H]3CC[C@@]3(N)C2)c(F)cc2c(CN)cc(=O)n(C3CC3)c12 (racemic): 0.60
N#Cc1c(N2CC3CC3(N)C2)c(F)cc2c(CN)cc(=O)n(C3CC3)c12 (centres undefined): 0.60
Cc1c(N2CC[C@@H]([C@H](C)N)C2)c(F)cc2c(=O)n(N)c(=O)n(C3CC3)c12: 0.30
